The origin of these recorded values is paper PMC12040169.

# test-details: in vitro
# measurement-context: human, hela cells, % viability
A collection of compounds and their measured viability at 28.5 h, 10 µM

# compound, viability at 28.5 h, 10 µM [%]
data = [
    ("CC(=O)Nc1ccc(NC(=O)COc2c(C)cc(Br)cc2C)cc1 [CBK267321]", 101),
    ("CC1CCC(C(N)=O)CN1C(=O)c1csc(Br)c1 (stereo not drawn) [CBK305812]", 92.3),
    ("O=C(Nc1cccnc1)c1cc2cc(Cl)ccc2[nH]1 [CBK107261]", 88.7),
    ("C=CCNC(=O)CSc1nc2sc(C)c(C)c2c(=O)[nH]1 [CBK287350]", 88.2),
    ("O=C(O)CCCNC(=O)c1cncc(O)c1 [CBK262060]", 81.8),
    ("O=C(O)c1cc(NC(=O)c2cccc(N3C(=O)c4ccc([N+](=O)[O-])cc4C3=O)c2)cc(C(=O)O)c1 [CBK261394]", 90.5),
    ("O=C(NC(C(=O)N/N=C/c1cccc(O)c1)c1n[nH]c(=O)c2ccccc12)c1ccccc1 (stereo not drawn) [CBK262853]", 89),
    ("C[C@@H](Nc1cncc(-c2ccc3c(c2)OCO3)n1)c1ccccc1 [CBK065954]", 108),
    ("CC(=O)Nc1ccc(-c2nc3cc(-c4nc5ccc(NC(C)=O)cc5[nH]4)ccc3[nH]2)cc1 [CBK261165]", 91.2),
]

* * *

# test-details: in vitro
# measurement-context: human, hela cells, % viability
readout-name: viability at 28.5 h, 10 µM (%)

# molecule, readout-name, recorded-number
rows = [
    ("O=C(c1cc2c(s1)CCC2)N1CCc2c(nc[nH]c2=O)C1", "viability at 28.5 h, 10 µM", 101),
    ("CCc1ccc(-n2nc3ccc(NC(=S)NC(=O)c4cc5ccccc5o4)cc3n2)cc1", "viability at 28.5 h, 10 µM", 101),
    ("Cc1nn(CC(=O)N2CCCCC2)c(=O)c2cc3ccsc3n12", "viability at 28.5 h, 10 µM", 91),
    ("CC1CCCCN1S(=O)(=O)c1cccc2nonc12 (stereo not drawn)", "viability at 28.5 h, 10 µM", 94.5),
    ("Nc1ncc(-c2ccoc2)nc1-c1ccc(C(=O)O)cc1", "viability at 28.5 h, 10 µM", 89.6),
    ("CC(=O)NC1CCN(c2nc(C(C)(C)C)nc3c2cnn3C)CC1", "viability at 28.5 h, 10 µM", 101),
    ("COc1cccc(C(=O)NCC(c2cccs2)N2CCOCC2)c1 (stereo not drawn)", "viability at 28.5 h, 10 µM", 90.7),
    ("CC1(C)CC(=O)C2=C(C1)Nc1nc(SCc3ccc([N+](=O)[O-])cc3)[nH]c(=O)c1C2c1cccnc1 (stereo not drawn)", "viability at 28.5 h, 10 µM", 108),
    ("CCNC(=O)[C@H]1CN(Cc2ccccc2)C[C@@H]1C(=O)c1ccccc1", "viability at 28.5 h, 10 µM", 88.1),
]

* * *

# viability at 28.5 h, 10 µM values compiled below
# test-details: in vitro
# measurement-context: human, hela cells, % viability
readout-name: viability at 28.5 h, 10 µM (%)

# molecule, recorded-number
records = [
    ("Nc1nc(-c2ccc(Cl)cc2)c(CC(=O)O)s1 [CBK287188]", 80),
    ("C[C@H](c1ccccc1)n1c(=O)[nH]c2ncc(-c3ccc(C(N)=O)cc3)nc21 [CBK064377]", 111),
    ("Cc1cc(C)c(Oc2nc(=O)n([C@H]3C[C@@H](O)[C@@H](CO)O3)cc2F)c(C)c1 [CBK201184]", 96.4),
    ("COc1ccccc1-c1coc2cc(OC(=O)c3c(C)oc4ccc(OC(C)=O)cc34)ccc2c1=O [CBK265191]", 92),
    ("CCCC(=O)Nc1ccc(-c2csc(N3CCN(C)CC3)n2)cc1 [CBK305025]", 103),
]

* * *

Below, each of the compounds is paired with its reported viability at 28.5 h, 10 µM value.
# test-details: in vitro
# measurement-context: human, hela cells, % viability

# compound, viability at 28.5 h, 10 µM, %
data = [
    ("S=c1nc(-c2ccccc2)n2cc(Br)ccc2n1", 111),
    ("c1cc(-c2cnc(N3CCOCC3)c3nccn23)c2cccnc2c1", 93.6),
    ("COc1ccccc1NC(=O)c1sc2ncn(CC(=O)NC3CCCCC3)c(=O)c2c1C", 98.5),
    ("CNS(=O)(=O)c1ccc(C)c(C(=O)N(C)Cc2cnn(C)c2)c1", 89.1),
    ("CN(C)C(=O)c1cn2cc(-c3cccs3)n(CC3CC3)c(=O)c2n1", 91.4),
    ("O=C1NCCNC(=O)C2(C/C=C/COc3ccccc31)CCCN(C(=O)c1cnco1)C2 (centres unmarked)", 106),
    ("CS(=O)(=O)Nc1ccc(C(=O)Nc2ccc(S(=O)(=O)N3CCCCCC3)cc2)cc1", 107),
    ("Oc1ccc(SCCCCN2CCCCC2)cc1", 110),
    ("O=C(O)C1Nc2c(Cl)cc(Cl)cc2C2C=CCC12 (centres unmarked)", 78.5),
    ("Cc1cc(C(=O)NCc2ccnc(N3CCOCC3)c2)c(C)n1-c1cccc(Cl)c1", 81.9),
    ("COc1ccc(C(=O)N2CCC3(CCN(C(=O)c4cccc(C#N)c4)C3)C2)cc1OC (centres unmarked)", 98.3),
    ("O=S(=O)(Nc1ccc2cc(Br)cnc2n1)c1cccc2nsnc12", 82.8),
    ("CCN(C)CC(=O)N1CCC(Oc2cc(C)ccc2F)(C(=O)O)CC1", 105),
    ("CCCCSc1nnc2nc(C)cc(C)n12", 98.2),
    ("Cc1cc(C2CCCCCN2C(=O)c2nn(C)cc2Cl)on1 (centres unmarked)", 105),
    ("Cc1[nH]c2ccccc2c1C(=O)CSc1nc2ccccc2o1", 100),
    ("CCOc1ccccc1NC(=O)CCCC(=O)O", 98.9),
    ("CC1SC(c2cc3ccccc3o2)N(c2ccc(F)cc2F)C1=O (centres unmarked)", 107),
    ("CCn1cc(CN(C)Cc2csc(C)n2)c2cc(C(=O)O)ncc21", 116),
    ("COc1cc(Nc2cncc(-c3ccc4ccccc4c3)n2)cc(OC)c1OC", 61.7),
    ("Cc1nn(Cc2c(F)cccc2Cl)c(C)c1NC(=S)Nc1ccc(S(N)(=O)=O)cc1", 101),
    ("Cc1cccc(N2NC(=O)/C(=C/c3cccn3-c3ccc(S(N)(=O)=O)cc3)C2=O)c1", 93.9),
    ("O=c1[nH]nc(SCCCOc2ccc(Cl)cc2)n1C1CC1", 115),
    ("c1ccc2sc(-n3cncn3)nc2c1", 92.2),
    ("O=C(Nc1ccc(N2CCN(C(=O)c3cccs3)CC2)cc1)c1ccc(-c2cc3ccccc3oc2=O)cc1", 96.2),
    ("Cc1cc(C(=O)N2CCN(Cc3ccco3)C[C@@H]2C(C)C)c(C)[nH]1", 88.2),
    ("COc1ccc(-c2nccnc2OC)c(OC)c1", 114),
    ("C/C(=C\\C(=O)NC1CC(C)(C)NC(C)(C)C1)NC1CC(C)(C)NC(C)(C)C1", 113),
    ("CC(C)CNC(=O)c1cc(C2CN(Cc3c[nH]nc3C(C)(C)C)CCO2)nc2ccccc12 (centres unmarked)", 104),
    ("CNC(=O)C1(Cc2ccc(-c3ccccc3)cc2)CCN(C(=O)CC2CCCCC2)CC1", 112),
    ("COc1ccc(Cl)cc1S(=O)(=O)N1CCC(C(N)=O)(N2CCCCC2)CC1", 97.9),
    ("O=C(CCN1CCCCC1)N1CCc2ccccc21", 91.1),
    ("Cc1nc2ccccn2c1-c1csc(Nc2ccc(C(=O)O)cc2)n1 [CBK261634B]", 74.4),
    ("O=C(c1ccc(-c2cnc3[nH]c(=O)n(CCc4cccnc4)c3n2)cc1)N1CCOCC1", 99.1),
    ("Brc1cccc(/C=N/c2ccc3nc(-c4ccccc4)[nH]c3c2)c1", 109),
    ("CC(C)(C)C1=CC2=NC3(CCC3)C3C[C@@H](O)[C@@H](O)[C@]3(COCc3ccccc3)N2O1 (some centres unmarked)", 99.6),
    ("N#CC(C(=O)CN1CCCC1)c1ccccc1 (centres unmarked)", 98.1),
    ("COc1ccc(-c2ccc3c(c2)OC2(CCN(C(=O)c4cc(OC)c(C)c(OC)c4)CC2)CC3=O)cn1", 107),
]

* * *

Quick reference for viability at 28.5 h, 10 µM among some compounds
# test-details: in vitro
# measurement-context: human, hela cells, % viability

# smiles-entry, measurement-unit, viability at 28.5 h, 10 µM
records = [
    ("FC(F)(F)c1ccnc(OCCN2CCNCC2)n1", "%", 97.5),
    ("CC(C)Nc1nc(C#N)nc(NC(C)C)n1", "%", 84.7),
    ("Cc1cc(NC(=O)c2ccc(OC(C)C)cc2)no1", "%", 94.4),
    ("COc1ccc(CN2CCN(C)CC2)cc1OCc1ccccc1", "%", 88.2),
    ("CCc1c(C)nc2c(C(=O)NCc3cc(C)on3)cnn2c1C", "%", 82.5),
    ("Nc1nnc(Sc2nccc(C(F)(F)F)n2)s1", "%", 99.5),
    ("CS(=O)(=O)c1nsc(Cl)n1", "%", 87.9),
    ("O=C(NCCNC(=O)c1ccccc1I)c1ccccn1", "%", 89.4),
    ("O=C(Nc1cc(F)ccc1N1CCCC1)c1ccc(=O)n(CC(=O)N2CCCCC2)c1", "%", 97.7),
    ("O=C(/C=C/c1cccc([N+](=O)[O-])c1)Nc1ccc(O)cc1C(=O)O", "%", 87.3),
]
